Test: Comparative oral pharmacokinetics of 2R, 2S and 2-F-DCK in mice
Format: in vivo, C57BL/6 mice
Settings: male, C57BL/6; mouse plasma, 10 mg/kg po
QUANTITY_KIND: Cmax
# do not omit the unit; it follows the number

// worked examples, Cmax included
> print(dat)
                                   compound  quantity.kind  experimental.value
1  CN[C@@]1(c2ccc(F)cc2)CCCCC1=O [Compound 2R]           Cmax          1180 ng/mL
2  CNC1(c2ccccc2F)CCCCC1=O (stereo not drawn) [Compound 2-F-DCK, reference compound]           Cmax          1960 ng/mL

[in] # return recorded Cmax for entry CN[C@]1(c2ccc(F)cc2)CCCCC1=O [Compound 2S]
[out] 1390 ng/mL

The reported measurements were obtained from patent US20240300886A1.
